Recorded values, source patent US6737383B1.

# System: rape
# PROTOCOL TEXT: Test B pre/postemergence rape
# Assay type: in vivo, Brassica napus
# CONDITION PARAMETERS: Postemergence, Rate 250 g/ha; scale 0 to 10, 0 no effect, 10 complete control
# Experimental: […] At the same time, these crop and weed species were also treated with postemergence applications of test chemicals formulated in the same manner. […] Treated plants and controls were maintained in a greenhouse for twelve to sixteen days, after which all species were compared to controls and visually evaluated. […]
ASSAY ENDPOINT: Rape plant response rating
Write no unit; give the number alone.

| MOL | RESULT VALUE |
| --- | --- |
| Cc1cccc(C)c1-n1c(=O)on(C(=O)N(c2ccc(F)cc2)C(C)C)c1=O | 0 |
| Cc1cc(C)c(-n2c(=O)on(C(=O)N(c3ccc(F)cc3)C(C)C)c2=O)c(C)c1 | 0 |
| Cc1c(Cl)cccc1-n1c(=O)on(C(=O)N(c2ccc(F)cc2)C(C)C)c1=O | 0 |

Q) I have this molecule here, CCCn1c(=O)on(C(=O)N(c2ccc(F)cc2)C(C)C)c1=O , and I need its recorded Rape plant response rating.
A) 4

Q) I have this molecule here, Cc1ccccc1-n1c(=O)on(C(=O)N(c2ccc(C(F)(F)F)cc2)C(C)C)c1=O , and I need its recorded Rape plant response rating.
A) 0

Q) I have this molecule here, CCN(CC)C(=O)n1oc(=O)n(Cc2cccs2)c1=O , and I need its recorded Rape plant response rating.
A) 0

Q) I have this molecule here, CC(C)N(C(=O)n1oc(=O)n(C(C)(C)C)c1=O)c1ccc(Cl)cc1 , and I need its recorded Rape plant response rating.
A) 0
